system.under.test: T1, human LAP-TGFB1 Fc fusion (human)
T1 construct: also called human LAP-TGFβ1-Fc; human LAP-TGFβ-Fc isoform 1
method: SPR pH 6.0, antigen-Fc captured, Fab analyte
measured.property: Kd (pM)
State the answer as a number, implicitly in pM.

binder | Kd, pM
56BLH (Fab, V domains shown, also called 08BLM Fab) VH: EVQLVQSGAEVKKPGASVKVSCKASGYTFTSYDMHWVRQAPGQGLEWMGRIDPQSGGTKYAQKFQGRATLTVDTSTSTAYMELSRLRSDDTAVYYCARWDYGGQFDVWGQGTLVTVSS VL: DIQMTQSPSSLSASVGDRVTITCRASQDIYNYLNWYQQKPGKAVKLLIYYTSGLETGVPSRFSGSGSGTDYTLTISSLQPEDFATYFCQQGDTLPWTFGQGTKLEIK | 10

Query: // Kd lookup, key: 63BLH (Fab, V domains shown, also called 15BLM Fab; 015BLM Fab) VH: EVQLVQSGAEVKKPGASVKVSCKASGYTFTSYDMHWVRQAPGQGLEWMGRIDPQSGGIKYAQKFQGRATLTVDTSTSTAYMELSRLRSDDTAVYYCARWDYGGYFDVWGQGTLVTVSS VL: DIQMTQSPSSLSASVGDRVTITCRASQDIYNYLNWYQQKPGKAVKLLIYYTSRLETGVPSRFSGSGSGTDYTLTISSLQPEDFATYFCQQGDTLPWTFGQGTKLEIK
Result: 369

Query: # lookup: Kd of 61BLH (Fab, V domains shown, also called 13BLM Fab) VH: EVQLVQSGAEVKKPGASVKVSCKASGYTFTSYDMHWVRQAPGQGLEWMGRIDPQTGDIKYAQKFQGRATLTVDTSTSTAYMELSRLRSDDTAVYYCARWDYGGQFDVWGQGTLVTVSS VL: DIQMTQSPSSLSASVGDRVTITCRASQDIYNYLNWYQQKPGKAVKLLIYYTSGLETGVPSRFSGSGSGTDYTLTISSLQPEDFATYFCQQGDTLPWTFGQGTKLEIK
Result: 31

# credit: patent US20230272056A1
